Protein target, amino acids: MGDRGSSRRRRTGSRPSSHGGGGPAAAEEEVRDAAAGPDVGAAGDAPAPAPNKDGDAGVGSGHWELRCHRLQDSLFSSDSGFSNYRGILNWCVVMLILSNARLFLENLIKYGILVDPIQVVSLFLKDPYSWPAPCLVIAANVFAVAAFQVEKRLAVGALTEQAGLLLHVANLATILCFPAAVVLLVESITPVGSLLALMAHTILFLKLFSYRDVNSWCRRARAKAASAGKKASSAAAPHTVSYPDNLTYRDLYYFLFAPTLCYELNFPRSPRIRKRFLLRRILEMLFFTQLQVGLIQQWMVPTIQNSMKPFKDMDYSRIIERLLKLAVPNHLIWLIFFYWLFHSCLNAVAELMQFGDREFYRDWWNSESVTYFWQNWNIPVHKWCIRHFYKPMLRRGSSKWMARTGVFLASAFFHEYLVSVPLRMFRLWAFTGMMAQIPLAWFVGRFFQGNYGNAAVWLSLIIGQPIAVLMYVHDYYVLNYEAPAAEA
Measured IC50 by item
propertyLabel: IC50

| molecule | result |
| --- | --- |
| CCOc1ccc(C(=O)NCCNC(=O)c2cn(-c3ccc4[nH]ccc4c3)nc2C(F)(F)F)cc1 | < 100 nM |
| O=C(NCCNC(=O)c1cn(-c2ccccc2)nc1C(F)(F)F)c1ccc(S(=O)(=O)c2ccccc2)nc1 | 100 to 1000 nM |
| CCOc1ccc(C(=O)NCCNC(=O)c2cn(-c3cccc(OCC)n3)nc2C(F)(F)F)cc1 | 100 to 1000 nM |
| O=C(NCCNC(=O)c1cn(C(=O)c2ccccc2)c2ccccc12)c1ccc(OCC(F)(F)F)nc1 | < 100 nM |
| N#Cc1cc(C(=O)NCCNC(=O)c2cn(-c3ccccc3)nc2C(F)(F)F)cnc1OCC(F)(F)F | 100 to 1000 nM |
| CCOc1ccc(C(=O)NCCNC(=O)c2cc(-c3ccccc3)cc(-c3ccccc3)n2)cc1 [Example D1] | 1000 to 10000 nM |
| O=C(NCCNC(=O)c1cn(-c2ccccc2)nc1C(F)(F)F)c1ccc(OCCC(F)(F)F)nc1 | < 100 nM |
| CN(C)c1nn(-c2ccccc2)cc1C(=O)NCCNC(=O)c1ccc(OCC(F)(F)F)nc1 | 1000 to 10000 nM |
| CCOc1ccc(C(=O)NC[C@@H](NC(=O)c2cn(-c3ccccc3)nc2C(F)(F)F)C(=O)OC)cc1 | 100 to 1000 nM |
| O=C(NCCNC(=O)c1cn(-c2ccccc2)nc1C(F)(F)F)c1ccc(-c2noc(C(F)(F)F)n2)nc1 | < 100 nM |
| O=C(NCCNC(=O)c1cn(-c2ccccc2)nc1C(F)(F)F)c1ccc(-n2cccn2)nc1 | < 100 nM |
| CN(C)c1ccc(C(=O)NCCNC(=O)c2cn(-c3ccccc3)nc2C(F)(F)F)cn1 | 100 to 1000 nM |
